# Tested Target: SFRP-1 (Homo sapiens)
# Sequence (Q8N474 32-314): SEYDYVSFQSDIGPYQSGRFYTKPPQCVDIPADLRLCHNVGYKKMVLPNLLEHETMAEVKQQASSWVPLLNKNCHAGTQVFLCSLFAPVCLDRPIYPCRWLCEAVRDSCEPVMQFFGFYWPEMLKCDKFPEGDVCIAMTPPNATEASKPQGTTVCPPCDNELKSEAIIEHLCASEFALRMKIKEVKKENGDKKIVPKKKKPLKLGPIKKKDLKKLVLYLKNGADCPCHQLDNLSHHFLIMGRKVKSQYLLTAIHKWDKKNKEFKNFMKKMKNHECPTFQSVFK
# Procedure Summary: Cell-based assay for in vitro measurement of SFRP-1/SARP2 antagonist activity (U2OS cells co-transfected with 16x TCF-tk-Luciferase reporter, Wnt and hSFRP-1);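 note: U2OS cells co-transfected with a TCF-tk luciferase reporter, a Wnt vector, hSFRP-1 or empty vector and CMV-βgal, luciferase luminescence read in cell lysates alongside βgal activity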
# Applied Conditions: U2OS, read-out: Fold Induction with SFRP-1, Conc 15 μM; with SFRP-1; fold induction over SFRP-1 control, single dose
Endpoint Label: fold induction at 15 µM

Reference set, count: 4
CCc1ccc(S(=O)(=O)c2ccccc2)cc1S(=O)(=O)NC1CCOCC1 = 3.4
Cc1ccc(S(=O)(=O)c2ccc3ccccc3c2)cc1S(=O)(=O)NCCCn1ccnc1 = 2.6
Cc1cc(C)c(S(=O)(=O)c2ccccc2)cc1S(=O)(=O)NC1CCOCC1 = 2.7
Cc1cc(S(=O)(=O)c2ccccc2)cc(S(=O)(=O)NCCC2CCOCC2)c1C = 1.5

(1) CC(C)(O)Cc1ccc(S(=O)(=O)c2ccccc2)cc1S(=O)(=O)NCCc1ccccc1
(2) CCc1ccc(S(=O)(=O)c2ccccc2)cc1S(=O)(=O)NCCc1ccccn1
(3) C=CCN(CCc1ccccc1F)S(=O)(=O)c1cc(S(=O)(=O)c2ccc(C)cc2)ccc1C
Sort ascending by fold induction at 15 µM. Give the labels in the order requested.
3, 1, 2
(3: 0.8, 1: 1.5, 2: 2.6)

FYI, the data here is from patent US20060276464A1.
